Hey, just so you know, these numbers are from patent US10899754B2.

Target: indoleamine 2, 3-dioxygenase (IDO1) (Homo sapiens, UniProt P14902)
Sequence (P14902 whole entry): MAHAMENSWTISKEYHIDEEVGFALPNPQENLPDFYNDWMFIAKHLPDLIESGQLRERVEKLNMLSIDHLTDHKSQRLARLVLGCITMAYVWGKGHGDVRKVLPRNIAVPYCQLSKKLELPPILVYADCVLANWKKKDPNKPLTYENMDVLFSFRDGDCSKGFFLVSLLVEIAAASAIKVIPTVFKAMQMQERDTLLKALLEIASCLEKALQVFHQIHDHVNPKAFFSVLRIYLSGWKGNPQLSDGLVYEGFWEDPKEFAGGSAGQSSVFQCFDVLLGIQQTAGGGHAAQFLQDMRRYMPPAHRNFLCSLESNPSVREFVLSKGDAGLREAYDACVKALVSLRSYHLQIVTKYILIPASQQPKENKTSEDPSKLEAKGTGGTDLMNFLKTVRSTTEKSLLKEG
Assay: IDO1 PBMC RapidFire MS assay (kynurenine detection by mass spectrometry)
Type: cell-based
Parameters: to induce the expression of indoleamine 2, 3-dioxygenase (IDO1); host or cells: human PBMC stimulated with IFN-gamma and LPS
Conditions: human PBMC stimulated with IFN-γ and LPS, 2 days, pIC50, read-out: PBMC PXC50 (converted)
Description: IDO1 PBMC RapidFire MS Assay Compounds of the present invention were tested via high-throughput cellular assays utilizing detection of kynurenine via mass spectrometry and cytotoxicity as end-points. […] Cellular toxicity due to the effect of compound treatment was measured using CellTiter-Glo® reagent (CTG) (Promega Corporation, Madison, Wis.), which is based on luminescent detection of ATP, an indicator of metabolically active cells. […]
Give measured IC50 for each item. Keep answers brief.
Answers are plain numbers, in nM.

{"molecule": "CO[C@H]1CC[C@H](N(CC(C)C)c2ccc([C@H](C)CC(=O)O)cc2Nc2nc(C(F)(F)F)ns2)CC1 [Example 50]", "scale unit": "nM", "IC50": 1.58}

Here are 3 molecules. What values of IC50 were reported for them?
1. CC(C)CN(CC(C)C)c1ccc(C(C)CC(=O)O)cc1Nc1nnn(C(C)C)n1 (stereo not shown) [example 250]
2. CNC(=O)N1CCC(N(CC(C)C)c2ccc([C@H](C)CC(=O)O)cc2Nc2nc(C(F)(F)F)ns2)CC1 [example 262]
3. CC(C)CN(c1ccc([C@H](C)CC(=O)O)cc1Nc1n[nH]c(C(F)(F)F)n1)C1CCCCC1 [Example 78]

Out:
1: 1260; 2: 20; 3: 3.16

Here are 5 molecules. What values of IC50 were reported for them?
1. CC(C)CN(c1ccc(-c2cccnc2C(=O)O)cc1Nc1nc2ccccc2o1)C1CCCCC1 [example 290]
2. CC(C)CN(c1ccc(C(C)OCC(=O)O)cc1Nc1nc(Cl)ns1)C1CCCCC1 (stereo not shown) [example 171]
3. CC[C@H](CC(=O)O)c1ccc(N(CC(C)C)C2CCOCC2)c(Nc2n[nH]c(C3CC3)n2)c1 [Example 41]
4. CC(C)CN(c1ccc([C@H](C)CC(=O)O)cc1Nc1n[nH]c(C(N)=O)n1)C1CCCCC1 [Example 84]
5. CC(C)CN(c1ccc(C(C)CC(=O)O)cc1Nc1nnc(C(N)=O)s1)C1CCCCC1 (stereo not shown) [Example 80]

Out:
1. 50.1
2. 25.1
3. 7.94
4. 7.94
5. 1.58

---

Target: UniProtKB P14902
Assay: IDO1 PBMC RapidFire MS assay (kynurenine detection by mass spectrometry)
Assay type: cell-based
Parameters: to induce the expression of indoleamine 2, 3-dioxygenase (IDO1); host or cells: human PBMC stimulated with IFN-gamma and LPS
Conditions: human PBMC stimulated with IFN-γ and LPS, 2 days, pIC50, read-out: PBMC PXC50 (converted)
Give measured IC50 for each item. Keep answers brief.
Answers are plain numbers, in nM.

{"compound": "CC(C)CN(c1ccc([C@H](C)CC(=O)O)cc1Nc1nc(C2CC2)ns1)C1CCOCC1 [Example 28]", "scale unit": "nM", "observed value": 5.01}
{"compound": "Cc1ccc(CC(=O)Nc2cc(-c3ccccc3C(=O)O)ccc2N(CC(C)C)C23CC(C2)C3)cc1 [example 268]", "scale unit": "nM", "observed value": 2000}
{"compound": "COC(=O)c1c[nH]c(Nc2cc([C@H](C)CC(=O)O)ccc2N(CC(C)C)C2CCOCC2)n1 [Example 29]", "scale unit": "nM", "observed value": 6.31}

Then there is this compound:
In: Look up IC50: CC(C)CN(c1ccc(C(C)OCC(=O)O)cc1Nc1nc2ccccc2o1)C1CCCCC1 (stereo not shown) [example 170]
Out: 316

---

Target: indoleamine 2, 3-dioxygenase (IDO1) (Homo sapiens, UniProt P14902)
Test: IDO1 HeLa RapidFire MS assay (kynurenine detection by mass spectrometry)
Assay type: cell-based
Design: to induce the expression of indoleamine 2, 3-dioxygenase (IDO1)
Conditions: HeLa cells, pIC50, read-out: IDO1_HELA_PXC50 (converted)
measurement label: IC50 (nM)
Give bare numbers, in nM.

{"molecule": "CC(C)CN(c1ccc([C@H](C)CC(=O)O)cc1Nc1nc(C2CC2)cs1)C1CCOCC1 [example 211]", "measurement target": "indoleamine 2, 3-dioxygenase (IDO1) (Homo sapiens, UniProt P14902)", "measurement label": "IC50", "scale unit": "nM", "observed value": 25.1}
{"molecule": "CC(C)CN(c1ccc(C2CC2C(=O)O)cc1Nc1nc(C(F)(F)F)ns1)C1CCCCC1 (single isomer, unassigned) [Example 104]", "measurement target": "indoleamine 2, 3-dioxygenase (IDO1) (Homo sapiens, UniProt P14902)", "measurement label": "IC50", "scale unit": "nM", "observed value": 3.16}

Then there is this molecule:
In: Look up IC50: CC(C)CN(c1ccc(-c2ccccc2C(=O)O)cc1Nc1nc(C(F)(F)F)cs1)C1CCCCC1 [example 299]
Out: 15.8

---

Molecular target: indoleamine 2, 3-dioxygenase (IDO1) (Homo sapiens, UniProt P14902)
Assay: IDO1 PBMC RapidFire MS assay (kynurenine detection by mass spectrometry)
Assay type: cell-based
Design: to induce the expression of indoleamine 2, 3-dioxygenase (IDO1); host or cells: human PBMC stimulated with IFN-gamma and LPS
Conditions: human PBMC stimulated with IFN-γ and LPS, 2 days, pIC50, read-out: PBMC PXC50 (converted)
measurement label: IC50

Use these answered entries as a reference point.
{"molecule": "CC(C)CN(c1ccc([C@H](C)CC(=O)O)cc1Nc1ncc(C(N)=O)cn1)C1CCOCC1 [example 248]", "measurement target": "indoleamine 2, 3-dioxygenase (IDO1) (Homo sapiens, UniProt P14902)", "observed value": "> 10000 nM"}
{"molecule": "CC(C)CN(c1ccc([C@H](C)CC(=O)O)cc1Nc1nc(C(F)(F)F)ns1)C1CCN(C(=O)OC(C)(C)C)CC1 [Example 69]", "measurement target": "indoleamine 2, 3-dioxygenase (IDO1) (Homo sapiens, UniProt P14902)", "observed value": "2.51 nM"}
{"molecule": "Cc1nnc(Nc2cc([C@H](C)CC(=O)O)ccc2N(CC(C)C)C2CCOCC2)s1 [example 215]", "measurement target": "indoleamine 2, 3-dioxygenase (IDO1) (Homo sapiens, UniProt P14902)", "observed value": "31.6 nM"}
{"molecule": "COCCC(=O)N1CCC(N(CC(C)C)c2ccc([C@H](C)CC(=O)O)cc2Nc2nc(C(F)(F)F)ns2)CC1 [Example 68]", "measurement target": "indoleamine 2, 3-dioxygenase (IDO1) (Homo sapiens, UniProt P14902)", "observed value": "2 nM"}
{"molecule": "COCc1ccc(Nc2cc([C@H](C)CC(=O)O)ccc2N(CC(C)C)C2CCOCC2)cn1 [Example 31]", "measurement target": "indoleamine 2, 3-dioxygenase (IDO1) (Homo sapiens, UniProt P14902)", "observed value": "10 nM"}

Here are 3 molecules. What values of IC50 were reported for them?
1. CC(C)CN(c1ccc([C@@H](C)CC(=O)O)cc1Nc1ccnc(Cl)n1)C1CCCCC1 [example 300]
2. CC(C)CN(c1ccc([C@H](C)CC(=O)O)cc1Nc1ncn[nH]1)C1CCOCC1 [example 242]
3. CC(C)CN(c1ccc([C@H](C)CC(=O)O)cc1N(c1cnc(C(=O)O)nc1)c1cnc(C(=O)O)nc1)C1CCOCC1 [example 265]

Out:
1: 2.51 nM; 2: 398 nM; 3: > 10000 nM

Here are 2 molecules. What values of IC50 were reported for them?
1. COC(=O)c1c[nH]c(Nc2cc([C@H](C)CC(=O)O)ccc2N(CC(C)C)C2CCCCC2)n1 [Example 77]
2. CC(C)CN(c1ccc([C@H](C)CC(=O)O)cc1Nc1nc(C(C)C)ns1)C1CCOCC1 [Example 26]

Out:
1: 1.58 nM; 2: 3.16 nM

Here are 3 molecules. What values of IC50 were reported for them?
1. CO[C@H]1CC[C@H](N(CC(C)C)c2ccc([C@H](C)CC(=O)O)cc2Nc2n[nH]c(C(F)(F)F)n2)CC1 [Example 52]
2. CO[C@H]1CC[C@H](N(CC(C)C)c2ccc(-c3ccccc3C(=O)O)cc2Nc2nc(C(F)(F)F)ns2)CC1 [Example 111]
3. CC(C)CN(c1ccc([C@H](C)CC(=O)O)cc1Nc1n[nH]c(C#N)n1)C1CCOCC1 [example 226]

Out:
1. 10 nM
2. 3.98 nM
3. 126 nM

Here are 2 molecules. What values of IC50 were reported for them?
1. CC(C)CN(CC(C)C)c1ccc(C(C)CC(=O)O)cc1-n1nnnc1N (stereo not drawn) [example 167]
2. CC(C)CN(c1ccc([C@H](C)CC(=O)O)cc1Nc1cnc(C#N)cn1)C1CCOCC1 [Example 19]

Out:
6310 nM
2.51 nM
